test-system: UniProt:P32745
Sequence (P32745 whole entry): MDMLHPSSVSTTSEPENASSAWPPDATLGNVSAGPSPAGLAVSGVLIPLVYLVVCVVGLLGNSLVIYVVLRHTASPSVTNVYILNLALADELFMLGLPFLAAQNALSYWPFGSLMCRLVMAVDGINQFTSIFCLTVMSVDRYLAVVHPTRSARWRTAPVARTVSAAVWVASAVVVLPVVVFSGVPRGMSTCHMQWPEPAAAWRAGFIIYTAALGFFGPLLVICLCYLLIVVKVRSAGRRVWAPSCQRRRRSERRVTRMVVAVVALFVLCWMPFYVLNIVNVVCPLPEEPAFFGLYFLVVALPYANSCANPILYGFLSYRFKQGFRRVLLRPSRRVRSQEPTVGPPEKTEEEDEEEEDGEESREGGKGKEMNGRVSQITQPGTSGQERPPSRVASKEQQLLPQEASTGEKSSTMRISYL
pKi: −log10 of the molar value.
readout-label: pKi

Return pKi for the following compound: Cc1ccc(S(=O)(=O)N[C@@H](CCCNC(C)C)COc2ccccc2)c2ccccc12
< 5.52
